The measurements presented in this section are drawn from patent US7550459B2.

molecular target: M1 muscarinic receptor (Homo sapiens, UniProt P11229); construct: expressed in transfected cells; experiment: Receptor Selection and Amplification (R-SAT) assay, cloned M1 receptor; assay type: cell-based; design: scale not given here; conditions: R-SAT, second table (COMPOUND ID series)
Sequence (P11229 whole entry): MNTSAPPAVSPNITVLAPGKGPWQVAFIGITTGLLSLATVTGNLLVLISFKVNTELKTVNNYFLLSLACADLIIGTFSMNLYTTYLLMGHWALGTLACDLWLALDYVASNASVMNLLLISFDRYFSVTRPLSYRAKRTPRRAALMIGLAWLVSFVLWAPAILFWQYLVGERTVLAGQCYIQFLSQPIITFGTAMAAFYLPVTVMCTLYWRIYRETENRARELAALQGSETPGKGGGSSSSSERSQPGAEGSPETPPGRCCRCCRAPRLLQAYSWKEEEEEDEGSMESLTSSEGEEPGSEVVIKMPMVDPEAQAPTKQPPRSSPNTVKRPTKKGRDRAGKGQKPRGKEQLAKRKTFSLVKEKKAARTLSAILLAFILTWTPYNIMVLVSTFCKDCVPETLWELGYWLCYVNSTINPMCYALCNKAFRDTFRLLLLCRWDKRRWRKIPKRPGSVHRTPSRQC
Output true (1) for records whose M1 Eff is lower than 100, false (0) for records at or above 100.

Does this molecule meet the criterion M1 Eff < 100? O=C1COc2c(F)cc(F)cc2N1CCCN1CCC(OCC2CC2)CC1 [Compound 00262874]
true (1)

One more molecule: CC(CN1CCC(OCC2CCC2)CC1)CN1C(=O)COc2ccccc21 (racemic) [Compound 00262197]
false (0)

One more molecule: O=C1CCc2cc(F)c(F)cc2N1CCCN1CCC(OCC2CC2)CC1 [Compound 00262272]
true (1)

One more molecule: C[C@H](CN1CCC(OCC2CC2)CC1)CN1C(=O)COc2ccccc21 [Compound 00262908]
false (0)

One more molecule: COCCC1CC2CCC(C1)N2CC(C)CN1C(=O)COc2ccccc21 (centres unmarked) [Compound 00263025]
false (0)

Further cases:
Does this molecule meet the criterion M1 Eff < 100? CCOCCC1CC2CCC(C1)N2CC(C)CN1C(=O)COc2ccccc21 (single isomer, unassigned) [Compound 00262993]
true (1)

One more molecule: CC(CN1C(=O)COc2ccccc21)CN1[C@@H]2CC[C@H]1C[C@@H](OCC1CC1)C2 (mixture of isomers) [Compound 00262573]
false (0)

One more molecule: CCc1cccc2c1OCC(=O)N2CC(C)CN1CCC(OCC2CC2)CC1 (racemic) [Compound 00262867]
false (0)

One more molecule: C[C@@H](CN1C(=O)COc2ccccc21)CN1[C@@H]2CC[C@H]1C[C@@H](OCC1CC1)C2 [Compound 00262909]
false (0)

One more molecule: O=C1COc2ccc(F)c(F)c2N1CCCN1CCC(OCC2CC2)CC1 [Compound 00262696]
true (1)

One more molecule: O=C1CCc2cc(F)c(F)cc2N1CCCN1C2CCC1CC(=CCOCC1CC1)C2 [Compound 00262356]
true (1)

One more molecule: O=C1COc2c(F)ccc(F)c2N1CCCN1CCC(OCC2CC2)CC1 [Compound 00262869]
true (1)

One more molecule: CCCC[C@]1(O)C[C@H]2CC[C@@H](C1)N2C[C@@H](C)CN1C(=O)COc2ccccc21 [Compound 00261478]
false (0)

One more molecule: O=C1CCc2cc(F)c(F)cc2N1CCCN1[C@@H]2CC[C@H]1C[C@@H](OCC1CC1)C2 [Compound 00262572]
true (1)

====

Item-by-item account of M3 Eff
target: M3 muscarinic receptor (Homo sapiens); construct: expressed in transfected cells; assay: Receptor Selection and Amplification (R-SAT) assay, cloned M3 receptor; format: cell-based; details: R-SAT, second table (COMPOUND ID series)
Sequence (P20309 whole entry): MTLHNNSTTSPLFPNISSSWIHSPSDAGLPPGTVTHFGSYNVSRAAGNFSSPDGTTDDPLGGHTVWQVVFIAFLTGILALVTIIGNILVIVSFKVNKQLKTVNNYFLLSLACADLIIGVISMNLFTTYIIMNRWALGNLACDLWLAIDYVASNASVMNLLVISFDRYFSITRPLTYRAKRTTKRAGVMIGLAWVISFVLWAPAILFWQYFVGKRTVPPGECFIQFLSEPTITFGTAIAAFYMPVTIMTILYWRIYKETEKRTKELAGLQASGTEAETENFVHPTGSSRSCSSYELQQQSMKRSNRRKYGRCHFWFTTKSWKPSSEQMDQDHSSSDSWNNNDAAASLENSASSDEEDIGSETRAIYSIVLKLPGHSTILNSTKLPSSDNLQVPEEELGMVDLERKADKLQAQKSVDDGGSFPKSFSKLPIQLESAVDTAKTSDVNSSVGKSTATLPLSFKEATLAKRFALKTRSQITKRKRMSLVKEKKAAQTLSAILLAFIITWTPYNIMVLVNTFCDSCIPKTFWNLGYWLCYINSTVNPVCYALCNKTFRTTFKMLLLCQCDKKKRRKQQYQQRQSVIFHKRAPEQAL
Give your answer as a number; write no unit.

Past entries and their recorded results:
# get_value(readout='M3 Eff', item= CC(CN1CCC(OCC2CC2)CC1)CN1C(=O)COc2ccccc21 (racemic) )
35

One more compound: `C[C@@H](CN1C(=O)COc2ccccc21)CN1[C@@H]2CC[C@H]1C[C@@H](OCC1CC1)C2`
52

One more compound: `C[C@H](CN1CCC(OCC2CC2)CC1)CN1C(=O)COc2ccccc21`
74

One more compound: CCOCCC1CC2CCC(C1)N2CC(C)CN1C(=O)COc2ccccc21 (single isomer, unassigned)
30

Now for a further compound.
# get_value(readout='M3 Eff', item= CCON=C1CC2CCC(C1)N2C[C@@H](C)CN1C(=O)COc2ccccc21 (single isomer, unassigned) )
82.8

====

Item-by-item account of pEC50
Target: M4 muscarinic receptor (Homo sapiens, UniProt P08173)
Construct: expressed in transfected cells
Sequence (P08173 whole entry): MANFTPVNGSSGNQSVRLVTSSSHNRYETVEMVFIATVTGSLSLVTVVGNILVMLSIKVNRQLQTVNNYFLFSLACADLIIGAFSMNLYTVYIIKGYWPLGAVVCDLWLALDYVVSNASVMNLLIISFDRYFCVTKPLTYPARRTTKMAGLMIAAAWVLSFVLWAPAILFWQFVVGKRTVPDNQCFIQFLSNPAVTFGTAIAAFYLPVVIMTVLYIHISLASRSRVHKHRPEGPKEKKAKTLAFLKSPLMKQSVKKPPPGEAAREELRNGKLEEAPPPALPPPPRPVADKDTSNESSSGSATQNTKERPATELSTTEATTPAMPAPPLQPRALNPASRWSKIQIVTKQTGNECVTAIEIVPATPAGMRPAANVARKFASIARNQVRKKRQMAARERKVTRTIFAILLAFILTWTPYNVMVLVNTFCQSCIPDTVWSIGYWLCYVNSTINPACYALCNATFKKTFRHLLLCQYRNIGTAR
Test: Receptor Selection and Amplification (R-SAT) assay, cloned M4 receptor
Assay type: cell-based
Text: The EC50 for an agonist is intended to denote the concentration of a compound needed to achieve 50% of a maximal response seen in an in vitro assay such as R-SAT. For inverse agonists, EC50 is intended to denote the concentration of a compound needed to achieve 50% inhibition of an R-SAT response from basal, no compound, levels. […]
Scale explanation: pEC50 corresponds to minus log10 of a concentration expressed in moles per litre.

# get_value(readout='pEC50', item= CCCCCC1CC2CCC(C1)N2C[C@@H](C)CN1C(=O)COc2ccccc21 (some centres unmarked) [Compound 108LM39-36] )
7.70

Further cases:
# get_value(readout='pEC50', item= CCCCCC1CC2CCC(C1)N2C[C@@H](C)CN1C(=O)CCc2ccccc21 (some centres unmarked) [Compound 107LH55] )
7.30

====

target: M2 muscarinic receptor (Homo sapiens, UniProt P08172); construct: expressed in transfected cells; test: Receptor Selection and Amplification (R-SAT) assay, cloned M2 receptor; format: cell-based; details: R-SAT, second table (COMPOUND ID series); read-out: M2 pEC50 (converted)
Sequence (P08172 whole entry): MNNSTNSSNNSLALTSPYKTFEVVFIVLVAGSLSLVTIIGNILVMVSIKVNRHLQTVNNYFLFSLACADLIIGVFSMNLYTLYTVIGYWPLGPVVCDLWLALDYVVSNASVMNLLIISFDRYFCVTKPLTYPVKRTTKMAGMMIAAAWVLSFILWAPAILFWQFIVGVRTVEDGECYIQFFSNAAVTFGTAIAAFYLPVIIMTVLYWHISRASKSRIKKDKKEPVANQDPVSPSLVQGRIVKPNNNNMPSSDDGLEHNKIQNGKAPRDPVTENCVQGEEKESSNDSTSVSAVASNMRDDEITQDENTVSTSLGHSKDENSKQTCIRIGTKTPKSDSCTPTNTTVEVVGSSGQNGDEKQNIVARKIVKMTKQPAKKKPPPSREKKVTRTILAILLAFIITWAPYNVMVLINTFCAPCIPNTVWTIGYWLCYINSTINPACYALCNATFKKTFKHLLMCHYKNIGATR
PROPERTY MEASURED: EC50 (nM)
Please respond with the number in nM and leave the unit unwritten.

Past entries and their recorded results:
# get_value(readout='EC50', item= CC(CN1CCC(OCC2CCC2)CC1)CN1C(=O)COc2ccccc21 (racemic) )
2510

One more compound: `O=C1COc2ccc(F)cc2N1CCCN1CCC(OCC2CC2)CC1`
794

One more compound: `C[C@H](CN1CCC(OCC2CC2)CC1)CN1C(=O)COc2ccccc21`
631

One more compound: C[C@@H](CN1C(=O)COc2ccccc21)CN1[C@@H]2CC[C@H]1CC(=NOCC1CC1)C2 (mixture of isomers)
794

Further cases:
# get_value(readout='EC50', item= CCc1cccc2c1OCC(=O)N2CC(C)CN1CCC(OCC2CC2)CC1 (racemic) )
1580

====

target: M2 muscarinic receptor (Homo sapiens); construct: expressed in transfected cells; assay: Receptor Selection and Amplification (R-SAT) assay, cloned M2 receptor; type: cell-based; conditions: R-SAT, cloned m2 receptor; read-out: m2 % Efficacy
Item-by-item account of Emax
Please respond with the number in % and leave the unit unwritten.

Past entries and their recorded results:
# get_value(readout='Emax', item= CCCCC1CCN(CCCN2C(=O)COc3cc(F)ccc32)CC1 [Compound 81MF763] )
47

One more compound: CCCCC1CCN(CCCN2C(=O)COc3ccc(C)cc32)CC1 [Compound 64LHY89-6]
35

One more compound: CCCCC1CCN(CCCN2CCOc3ccc(C)cc32)CC1 [Compound 64LHY91-6]
31

One more compound: CCCCC1CCN(CCCN2CCCc3ccccc32)CC1 [Compound 55-LH-12-2]
35

Further cases:
# get_value(readout='Emax', item= CCCCC1CCN(CCCN2c3ccccc3CCC2C)CC1 (centres unmarked) [Compound 55-LH-28-8] )
67

====

Biological target: M5 muscarinic receptor (Homo sapiens, UniProt P08912)
Construct: expressed in transfected cells
Sequence (P08912 1-532): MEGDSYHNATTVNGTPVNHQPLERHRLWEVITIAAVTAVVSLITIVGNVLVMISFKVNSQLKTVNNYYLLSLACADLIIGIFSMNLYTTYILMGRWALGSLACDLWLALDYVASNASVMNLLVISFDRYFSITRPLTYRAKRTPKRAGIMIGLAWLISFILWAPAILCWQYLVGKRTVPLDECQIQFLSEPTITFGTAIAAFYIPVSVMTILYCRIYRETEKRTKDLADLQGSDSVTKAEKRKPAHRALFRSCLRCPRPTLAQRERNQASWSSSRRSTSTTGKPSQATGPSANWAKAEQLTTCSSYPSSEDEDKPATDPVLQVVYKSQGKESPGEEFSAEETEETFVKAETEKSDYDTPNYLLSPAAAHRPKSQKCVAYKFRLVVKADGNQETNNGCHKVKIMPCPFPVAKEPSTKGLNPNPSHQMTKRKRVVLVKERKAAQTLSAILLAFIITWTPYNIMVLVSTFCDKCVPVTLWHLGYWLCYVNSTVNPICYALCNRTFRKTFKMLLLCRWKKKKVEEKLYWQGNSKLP
Test: Receptor Selection and Amplification (R-SAT) assay, cloned M5 receptor
Assay type: cell-based
Conditions: read-out: m5 pEC50 (converted)
PROPERTY MEASURED: EC50 (µM)
Please respond with the number in µM and leave the unit unwritten.

# get_value(readout='EC50', item= `CCCCC1CCN(CCCN2C(=O)COc3cc(F)ccc32)CC1` )
1.26

One more compound: `CCCCC1CCN(CCCN2C(=O)COc3ccc(C)cc32)CC1`
0.631

Further cases:
# get_value(readout='EC50', item= `CCCCC1CCN(CCCN2CCOc3ccc(CC)cc32)CC1` )
0.631

====

target: M1 muscarinic receptor (Homo sapiens, UniProt P11229); construct: expressed in transfected cells; experiment: Receptor Selection and Amplification (R-SAT) assay, cloned M1 receptor; type: cell-based; conditions: m1 pEC50, R-SAT, cloned m1 receptor
Item-by-item account of pEC50
Scale explanation: pEC50 corresponds to minus log10 of a concentration expressed in moles per litre.

Past entries and their recorded results:
# get_value(readout='pEC50', item= CCCCCC1CC2CCC(C1)N2C[C@@H](C)CN1C(=O)CCc2ccccc21 (stereo partly shown) [Compound 107LH55] )
8.90

One more compound: CCCCCC1CC2CCC(C1)N2C[C@@H](C)CN1C(=O)COc2ccccc21 (stereo partly shown) [Compound 108LM39-36]
8.80

One more compound: CCCC=C1CC2CCC(C1)N2CCCN1C(=O)COc2ccccc21 [Compound 81MF24]
7.80

Now for a further compound.
# get_value(readout='pEC50', item= CCCCCC1CC2CC[C@@H](C1)N2C[C@@H](C)CN1C(=O)COc2cc(F)ccc21 (stereo partly shown) [Compound 112KK20-c5] )
8.30
